// values below are reported PBM E-score
Target: Yap3 (UniProt P38749)
Sequence: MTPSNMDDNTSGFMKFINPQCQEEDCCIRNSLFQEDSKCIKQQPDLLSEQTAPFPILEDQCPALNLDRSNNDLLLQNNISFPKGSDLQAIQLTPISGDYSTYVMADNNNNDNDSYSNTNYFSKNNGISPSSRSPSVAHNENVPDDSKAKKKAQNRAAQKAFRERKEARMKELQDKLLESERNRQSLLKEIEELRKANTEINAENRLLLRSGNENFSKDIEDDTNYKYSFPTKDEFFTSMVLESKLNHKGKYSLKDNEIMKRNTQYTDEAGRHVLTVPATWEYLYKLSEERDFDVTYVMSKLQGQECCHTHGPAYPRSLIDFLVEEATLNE
Test: PBM E-score (8-mer binding enrichment) (E-score (-0.5 to 0.5)); higher = stronger / more preferred TF binding
Settings: protein concentration: 100 nM; construct: GST-full length
Whole data set: some 33,000 sequences, median “E-score (-0.5 to 0.5)” near -0.0034, cut for the highest 2% near 0.25. The sample as a whole holds a higher share of the highest values than the screen did.

{"seqText": "AAATTAGG", "measuredOn": "Yap3 (UniProt P38749)", "PBM E-score": 0.196}
{"seqText": "ATTTAACG", "measuredOn": "Yap3 (UniProt P38749)", "PBM E-score": 0.204}
{"seqText": "AGAATTTG", "measuredOn": "Yap3 (UniProt P38749)", "PBM E-score": 0.107}
{"seqText": "AGATTAAT", "measuredOn": "Yap3 (UniProt P38749)", "PBM E-score": 0.194}
{"seqText": "AAATTAGT", "measuredOn": "Yap3 (UniProt P38749)", "PBM E-score": 0.283}
{"seqText": "AAATTACT", "measuredOn": "Yap3 (UniProt P38749)", "PBM E-score": 0.304}
{"seqText": "AAAATTTG", "measuredOn": "Yap3 (UniProt P38749)", "PBM E-score": 0.0972}
{"seqText": "ATAATTTC", "measuredOn": "Yap3 (UniProt P38749)", "PBM E-score": 0.17}
{"seqText": "CAGTTTGC", "measuredOn": "Yap3 (UniProt P38749)", "PBM E-score": 0.124}
{"seqText": "GGAATTTA", "measuredOn": "Yap3 (UniProt P38749)", "PBM E-score": 0.173}
{"seqText": "ATATTAAG", "measuredOn": "Yap3 (UniProt P38749)", "PBM E-score": 0.0834}
{"seqText": "CTATTAAA", "measuredOn": "Yap3 (UniProt P38749)", "PBM E-score": 0.135}
{"seqText": "AAATTAAC", "measuredOn": "Yap3 (UniProt P38749)", "PBM E-score": 0.136}
{"seqText": "GTTACTGA", "measuredOn": "Yap3 (UniProt P38749)", "PBM E-score": 0.106}
{"seqText": "TCATGGGA", "measuredOn": "Yap3 (UniProt P38749)", "PBM E-score": 0.00531}
{"seqText": "CTAATTTA", "measuredOn": "Yap3 (UniProt P38749)", "PBM E-score": 0.19}
{"seqText": "ACGGAGAT", "measuredOn": "Yap3 (UniProt P38749)", "PBM E-score": -0.0531}
{"seqText": "AACTTCGG", "measuredOn": "Yap3 (UniProt P38749)", "PBM E-score": 0.13}
{"seqText": "TACAACTA", "measuredOn": "Yap3 (UniProt P38749)", "PBM E-score": -0.028}
{"seqText": "AAATTAAT", "measuredOn": "Yap3 (UniProt P38749)", "PBM E-score": 0.229}
{"seqText": "CATTGAAC", "measuredOn": "Yap3 (UniProt P38749)", "PBM E-score": 0.07}
{"seqText": "AAATTACG", "measuredOn": "Yap3 (UniProt P38749)", "PBM E-score": 0.172}
{"seqText": "AAATTACC", "measuredOn": "Yap3 (UniProt P38749)", "PBM E-score": 0.235}
{"seqText": "CGAATTTC", "measuredOn": "Yap3 (UniProt P38749)", "PBM E-score": 0.298}
{"seqText": "GTATTAAC", "measuredOn": "Yap3 (UniProt P38749)", "PBM E-score": 0.0508}
{"seqText": "CTCGAACC", "measuredOn": "Yap3 (UniProt P38749)", "PBM E-score": -0.0728}
